Test Details: Pharmacokinetics (PK) in mouse, I.V. and oral
Type: in vivo, CD-1 mice
Condition Context: CD-1, plasma, intravenous 1 mg/kg
Experimental Endpoint: C0 (ng/mL)
Form entry: value (ng/mL) — number only.

Determine from records and report C0 for COc1ccc2cccc(CCNC(C)=O)c2c1 [IA2-76, agomelatine, reference compound]
811

###

Test Details: Permeability in Caco-2 cells
Assay type: in vitro ADME
Condition Context: human, Caco-2, pH 6.5; apical to basolateral, 60 min, 37° C.; read-out: Permeability A-B (pH 6.5/7.4)
Experimental Endpoint: Papp A→B at 60 min (×10⁻⁶ cm/s)
Form entry: value (×10⁻⁶ cm/s) — number only.

The cases that follow already have their Papp A→B at 60 min on record.
- Molecule: "COc1cc2c(cc1Cl)nc(OC)n2CCNC(C)=O [IA2-143]"
  Output Unit: "×10⁻⁶ cm/s"
  Papp A→B at 60 min: 21.3
- Molecule: "CCOc1nc2cc(Cl)c(OC)cc2n1CCCNC(C)=O [IA2-142]"
  Output Unit: "×10⁻⁶ cm/s"
  Papp A→B at 60 min: 34
- Molecule: "CCOc1nc2cc(Cl)c(OC)cc2n1CCNC(C)=O [IA2-121]"
  Output Unit: "×10⁻⁶ cm/s"
  Papp A→B at 60 min: 58.2
- Molecule: "COc1ccc2nc(OC)n(CCCNC(C)=O)c2c1 [IA2-140]"
  Output Unit: "×10⁻⁶ cm/s"
  Papp A→B at 60 min: 27.3

Determine from records and report Papp A→B at 60 min for COc1ccc2cccc(CCNC(C)=O)c2c1 [IA2-76, agomelatine, reference compound]
83.9

Determine from records and report Papp A→B at 60 min for CCOc1nc2ccc(OC)cc2n1CCCNC(C)=O [IA2-120]
32.1
